Would you mind telling me the reported log10 of IC50 of each entry?
tgt: CCR1 (Homo sapiens)
Sequence (P32246 whole entry): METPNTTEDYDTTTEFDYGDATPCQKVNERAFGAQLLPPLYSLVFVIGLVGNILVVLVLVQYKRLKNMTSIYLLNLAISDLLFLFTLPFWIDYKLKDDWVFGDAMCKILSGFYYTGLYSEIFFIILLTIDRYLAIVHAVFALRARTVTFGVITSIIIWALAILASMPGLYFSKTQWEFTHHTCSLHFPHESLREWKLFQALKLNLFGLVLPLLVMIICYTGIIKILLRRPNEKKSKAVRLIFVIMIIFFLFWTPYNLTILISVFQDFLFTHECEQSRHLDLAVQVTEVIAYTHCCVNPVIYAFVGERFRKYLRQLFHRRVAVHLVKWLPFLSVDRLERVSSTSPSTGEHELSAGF
experiment: Calcium flux assay in CCR1 transfected cells (block of CCR1/MIP-1α interaction)
Format: cell-based
cond: cells stably expressing recombinant CCR1 and G-alpha-16; MIP-1 alpha at EC80; mean
Note: values are log10 of IC50 expressed in nM.

Item: Cc1cc(C)c(S(C)(=O)=O)cc1NC(=O)c1cncc2c1cnn2-c1ccc(F)cc1 Test system: CCR1 (Homo sapiens) Read-out: log10 of IC50 Value: ?
0.32

Provide the documented log10 of IC50 with CCR1 (Homo sapiens) as the system for Cc1ccc(NC(=O)c2cncc3c2cnn3-c2ccc(F)cc2)c(Cl)n1
1.91

Record lookup: for CCR1 (Homo sapiens), what log10 of IC50 belongs to Cc1noc(C)c1NC(=O)c1cncc2c1cnn2-c1ccc(F)cc1 ?
0.84

Any idea what log10 of IC50 came out for Cc1cc(-c2nnco2)ccc1NC(=O)c1cncc2c1cnn2-c1ccc(F)cc1 on CCR1 (Homo sapiens)?
1.48

Item: Cc1onc(-c2ccccc2)c1NC(=O)c1cncc2c1cnn2-c1ccc(F)cc1 Test system: CCR1 (Homo sapiens) Read-out: log10 of IC50 Value: ?
1.15

Record Cc1ccnc(C)c1NC(=O)c1cncc2c1cnn2-c1ccc(F)cc1 : what is its log10 of IC50 with CCR1 (Homo sapiens)?
1.32

Notebook entry, CCR1 (Homo sapiens) assay: log10 of IC50 of COC(=O)c1ccc(NC(=O)c2cncc3c2cnn3-c2ccc(F)cc2)c(C)c1 = ?
1.38

What reported log10 of IC50 corresponds to Cn1nccc1-c1cccc(NC(=O)c2cncc3c2cnn3-c2ccc(F)cc2)c1 on CCR1 (Homo sapiens)?
1.86

Test system CCR1 (Homo sapiens); read-out log10 of IC50; what value for CNC(=O)c1ccc(NC(=O)c2cncc3c2cnn3-c2ccc(F)cc2)c(C)c1 ?
1.97

Lab note: need log10 of IC50 with CCR1 (Homo sapiens) for entry Cc1nc(Cl)ccc1NC(=O)c1cncc2c1cnn2-c1ccc(F)cc1 , please look it up.
0.94

What reported log10 of IC50 corresponds to Cn1ncc(-c2ccccc2)c1NC(=O)c1cncc2c1cnn2-c1ccc(F)cc1 on CCR1 (Homo sapiens)?
1.92

# value lookup — system CCR1 (Homo sapiens), readout log10 of IC50, item Cc1cc(C)c(NC(=O)c2cncc3c2cnn3-c2ccc(F)cc2)c(C)c1
1.28

Checklist item: log10 of IC50 tested on CCR1 (Homo sapiens), entry Cc1cc(C(=O)N(C)C)ccc1NC(=O)c1cncc2c1cnn2-c1ccc(F)cc1 , value?
1.82

Please state recorded log10 of IC50 (tested on CCR1 (Homo sapiens)) of Cc1cc(Cl)cc(C)c1NC(=O)c1cncc2c1cnn2-c1ccc(F)cc1
0.45

# value lookup — system CCR1 (Homo sapiens), readout log10 of IC50, item Cc1cccc(Cl)c1NC(=O)c1cncc2c1cnn2-c1ccc(F)cc1
1.56
